System: lanierone-responsive B-neuron OSN class (ItypOR36)
procedure.text: net action potential response of lanierone B-neuron (blank-subtracted) (spikes/s (Hz)); higher = stronger excitation
measurement.conditions: co-localized A-neuron class: (4S)-cis-verbenol; 10 µg on filter paper; neuron: B neuron (small spike amplitude)
Kind request: treat 1 as inclusive, so net action potential response at 1 or higher is condition met, anything lower is condition not met.

Worked cases, answers included:
1. C=C1[C@@H]2CC[C@@H](C2)C1(C)C (racemic) [(±)-Camphene] ... condition not met
2. C=CC(C)(C)O ... condition not met
3. C=CC(=C)CC(O)C=C(C)C (racemic) [(±)-Ipsdienol] ... condition met
4. CC1=CCC2CC1C2(C)C (stereo not drawn) [(+)-α-Pinene] ... condition not met
5. C=C1CCC2(C(C)C)CC12 (racemic) [(±)-Sabinene] ... condition not met
6. CC(=O)OCCc1ccccc1 [2-Phenethyl acetate] ... condition met
7. c1ccc2c(c1)CCO2 [2,3-Dihydrobenzofuran] ... condition met
8. CC(=O)OCCC(C)C [3-Methylbutyl acetate] ... condition not met

q: Does CCC/C=C\CO have a reported net action potential response of at least 1?
a: condition met

q: Does CCCCCC=O have a reported net action potential response of at least 1?
a: condition not met

q: Does CC(=O)CC/C=C(\C)CCC=C(C)C have a reported net action potential response of at least 1?
a: condition not met

q: Does CCC1CCC2(CCCO2)O1 (racemic) [(±)-Chalcogran] have a reported net action potential response of at least 1?
a: condition not met

q: Does COc1ccccc1 have a reported net action potential response of at least 1?
a: condition not met

q: Does C=CC(=C)C[C@@H](O)CC(C)C (racemic) [(±)-Ipsenol] have a reported net action potential response of at least 1?
a: condition not met

q: Does CC1=CCC(C(C)C)=CC1 have a reported net action potential response of at least 1?
a: condition not met

q: Does CC/C=C\CCO have a reported net action potential response of at least 1?
a: condition met

q: Does CCCCCC(O)CC (racemic) [(±)-3-Octanol] have a reported net action potential response of at least 1?
a: condition met

q: Does CC1=CCC2C(C1)C2(C)C (single isomer, unassigned; (+)) [(+)-3-Carene] have a reported net action potential response of at least 1?
a: condition met

q: Does C[C@H]1C(=O)C[C@H]2C[C@@H]1C2(C)C [(-)-Pinocamphone] have a reported net action potential response of at least 1?
a: condition not met

q: Does CC[C@H]1O[C@]2(C)CCC[C@H]1O2 (racemic) [(±)-exo-Brevicomin] have a reported net action potential response of at least 1?
a: condition not met

====

Test system: lanierone-responsive B-neuron OSN class (ItypOR36)
procedure.text: net action potential response of lanierone B-neuron (blank-subtracted) (spikes/s (Hz)); higher = stronger excitation
measurement.conditions: co-localized A-neuron class: (5S,7S)-trans-conophthorin; 10 µg on filter paper; neuron: B neuron (small spike amplitude)
Kindly supply the reported net action potential response values for the records listed here.

1) CCC/C=C/CO ... 4.67

Would you be so kind as to report net action potential response for each listed record?
1. CC12CCC(CC1=O)C2(C)C (racemic) [(±)-Camphor]
2. CCC/C=C\CO
3. Cc1ccc(C(C)C)cc1 [p-Cymene]
4. CC(C)CCO [3-Methyl-1-butanol]
5. CC1=CC(=O)[C@@H]2C[C@H]1C2(C)C [(-)-Verbenone]

a:
0
2
0.5
0.667
-0.667
